Hey, just so you know, these numbers are from patent US20100144793A1.

measuredOn: preformed Aβ1-42 fibers (Homo sapiens, UniProt P05067)
Construct: Aβ1-42 lyophilized powder (Bachem) was reconstituted in hexafluoroisopropanol (HFIP) to 1 mM; purchased Bachem
Sequence (P05067 672-713 limits assumed): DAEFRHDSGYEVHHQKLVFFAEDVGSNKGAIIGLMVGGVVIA
protocolSummary: Thioflavin T spectrofluorescence assay: disaggregation of preformed Aβ1-42 fibers
Format: biochemical
cond: Table 5; 330 μM small molecule, 10:1 molar ratio to pre-aggregated Aβ1-42, additional 24 h at 37° C.; mean ± SD of two independent experiments
Structures can show the parent of a compound that is named as a salt.
recordedMetric: % disaggregation (%)
Output spec: scalar in %, unitless text.

* COc1ccc(-c2cc(NCCNc3cc(-c4ccc(OC)cc4)[nH]n3)n[nH]2)cc1 [Compound 1g, bishydrochloride] | 66.6
* Cc1ccc(-c2cc(NCCNc3cc(-c4ccc(C)cc4)[nH]n3)n[nH]2)cc1 [Compound 1d, bishydrochloride] | 77.1

Now let's try a different one.
Exercise: Record lookup: for preformed Aβ1-42 fibers (Homo sapiens, UniProt P05067), what % disaggregation belongs to Clc1ccc(-c2cc(NCCNc3cc(-c4ccc(Cl)cc4)[nH]n3)n[nH]2)cc1 [Compound 1f, bishydrochloride] ?
Solution: 78.4

====

Counter-ions that a name gives are not always drawn.
recordedMetric: melting point (°C)
Output spec: scalar in °C, unitless text.

Look over these answered cases.
• Cc1ccc(-c2cc(NCC(=O)Nc3cc(-c4cccs4)[nH]n3)n[nH]2)cc1 [Compound 1aa] = 246
• FC(F)(F)c1cccc2[nH]nc(NCCNc3n[nH]c4cccc(C(F)(F)F)c34)c12 (as salt: hydrochloride) [Compound 1ai, bishydrochloride] = 222

Exercise: Would you mind telling me what melting point value was observed for O=C(CNc1cc(-c2ccc(Cl)cc2)[nH]n1)Nc1cc(-c2cccs2)[nH]n1 [Compound 1ag] ?
Solution: 257

====

Counter-ions that a name gives are not always drawn.
recordedMetric: melting point (°C)
Output spec: scalar in °C, unitless text.

Look over these answered cases.
* c1ccc(-c2cc(NCCNc3cc(-c4ccccc4)[nH]n3)n[nH]2)cc1 (as salt: hydrochloride) [Compound 1e, bishydrochloride] | 204
* Clc1ccc(-c2cc(NCCNc3cc(-c4cccs4)[nH]n3)n[nH]2)cc1 (as salt: hydrochloride) [Compound 1ah, bishydrochloride] | 139
* c1csc(-c2cc(NCCNc3cc(-c4cccs4)[nH]n3)n[nH]2)c1 (as salt: hydrochloride) [Compound 1h, bishydrochloride] | 147
* Cc1ccc(-c2cc(NCc3cccc(CNc4cc(-c5ccc(C)cc5)[nH]n4)c3)n[nH]2)cc1 (as salt: hydrochloride) [Compound 1ao, dihydrochloride] | 183
* O=C(CNc1cc(-c2cccs2)[nH]n1)Nc1cc(-c2ccc(Cl)cc2)[nH]n1 [Compound 1af] | 233
* Cc1ccc(-c2cc(NCC(C)(C)CNc3cc(-c4ccc(C)cc4)[nH]n3)n[nH]2)cc1 (as salt: hydrochloride) [Compound 1an, dihydrochloride] | 151
* Cc1ccc(-c2cc(NCc3ccc(CNc4cc(-c5ccc(C)cc5)[nH]n4)cc3)n[nH]2)cc1 (as salt: hydrochloride) [Compound 1ap, dihydrochloride] | 184
* Clc1ccc(-c2cc(NCCNc3cc(-c4ccc(Cl)cc4)[nH]n3)n[nH]2)cc1 (as salt: hydrochloride) [Compound 1f, bishydrochloride] | 195

Now let's try a different one.
Exercise: Would you mind telling me what melting point value was observed for Cc1ccc(-c2cc(NCC(=O)Nc3cc(-c4ccc(C)cc4)[nH]n3)n[nH]2)cc1 [Compound 1y] ?
Solution: 238

====

measuredOn: Aβ1-42 (Homo sapiens, UniProt P05067)
Construct: Aβ1-42 lyophilized powder (Bachem) was reconstituted in hexafluoroisopropanol (HFIP) to 1 mM; purchased Bachem
Sequence (P05067 672-713 limits assumed): as above
protocolSummary: Thioflavin T spectrofluorescence assay: inhibition of Aβ1-42 aggregation
Type: biochemical
cond: 24 h
Where a name gives a salt, the structure may show the parent alone.
recordedMetric: inhibition at 330 µM (%)
Output spec: scalar in %, unitless text.

Look over these answered cases.
* c1csc(-c2c[nH]nc2NCCNc2n[nH]cc2-c2cccs2)c1 [Compound 1r, bishydrochloride] | 49.5
* CC(C)(C)c1cc(NCCNc2cc(C(C)(C)C)[nH]n2)n[nH]1 [Compound 1j, bishydrochloride] | 11.5
* COc1ccc(-c2cc(NCCNc3cc(-c4ccc(OC)cc4)[nH]n3)n[nH]2)cc1 [Compound 1g, bishydrochloride] | 68.2

Now let's try a different one.
Exercise: Would you mind telling me what inhibition at 330 µM value was observed for c1[nH]nc(NCCNc2n[nH]cc2C2CC2)c1C1CC1 [Compound 1v, bishydrochloride] ?
Solution: 15.3

====

measuredOn: Aβ1-42 (Homo sapiens, UniProt P05067)
Construct: Aβ1-42 lyophilized powder (Bachem) was reconstituted in hexafluoroisopropanol (HFIP) to 1 mM; purchased Bachem
protocolSummary: Thioflavin T spectrofluorescence assay: inhibition of Aβ1-42 aggregation
Format: biochemical
cond: 24 h
Counter-ions that a name gives are not always drawn.
Note to self: values exactly at 50% are yes (1). So inhibition at 330 µM at or above 50% is yes (1), below is no (0).

Exercise: Is it the case that Cc1ccc(-c2cc(NCCNc3cc(-c4ccc(Cl)cc4)[nH]n3)n[nH]2)cc1 [Compound 1ae, bishydrochloride] has inhibition at 330 µM reaching or exceeding 50%?
Solution: yes (1)

Exercise: Is it the case that Brc1ccc(-c2cc(NCCNc3cc(-c4ccc(Br)cc4)[nH]n3)n[nH]2)cc1 [Compound 1u, bishydrochloride] has inhibition at 330 µM reaching or exceeding 50%?
Solution: yes (1)

====

measuredOn: Oregon Green labeled Aβ(1-42) (Homo sapiens, UniProt P05067)
Construct: DMSO-stock solutions of Oregon Green labeled Aβ(1-42) 1:1 with deionized water
protocolSummary: FCS-assay with 5 nM Oregon Green labeled Aβ-peptide (disaggregation of preformed aggregates)
Format: biochemical
cond: read-out: Percentage of the “peaks × height“ value compared to the control reaction without added ligand
Protocol: In order to analyse the disaggregating properties of the compounds, preformed aggregates were used, which were induced straight before the FCS-measurement by diluting low concentrated (500 nM) DMSO-stock solutions of Oregon Green labeled Aβ(1-42) 1:1 with deionized water. The final concentration of Oregon Green labeled Aβ-peptide was 5 nM in 1×PBS and 3% DMSO. To improve the reproducibility of the measurements of the concentration dependencies all samples were prepared fourfold.
Counter-ions that a name gives are not always drawn.
recordedMetric: remaining activity at 0.1 µM (%)
Output spec: scalar in %, unitless text.

Look over these answered cases.
• Cc1ccc(-c2cc(NCCNc3cc(-c4cccs4)[nH]n3)n[nH]2)cc1 [Compound 1ab, bishydrochloride] = 51.4
• Fc1ccc(-c2cc(NCCNc3cc(-c4ccc(F)cc4)[nH]n3)n[nH]2)cc1 [Compound 1ak, bishydrochloride] = 43.3
• Clc1ccc(-c2cc(NCCNc3cc(-c4cccs4)[nH]n3)n[nH]2)cc1 [Compound 1ah, bishydrochloride] = 44.8

Now let's try a different one.
Exercise: Would you mind telling me what remaining activity at 0.1 µM value was observed for Cc1ccc(-c2cc(NCCNc3cc(-c4ccc(Cl)cc4)[nH]n3)n[nH]2)cc1 [Compound 1ae, bishydrochloride] ?
Solution: 60.4

====

This section presents compounds with their documented remaining activity at 0.1 µM values.
measuredOn: Oregon Green labeled Aβ(1-42) (Homo sapiens, UniProt P05067)
Construct: DMSO-stock solutions of Oregon Green labeled Aβ(1-42) 1:1 with deionized water
protocolSummary: FCS-assay with 5 nM Oregon Green labeled Aβ-peptide (disaggregation of preformed aggregates)
Format: biochemical
cond: read-out: Percentage of the “number of peaks” value compared to the control reaction without added ligand
Structures can show the parent of a compound that is named as a salt.

Look over these answered cases.
- Clc1ccc(-c2cc(NCCNc3cc(-c4cccs4)[nH]n3)n[nH]2)cc1 [Compound 1ah, bishydrochloride]: 61.1%
- Fc1ccc(-c2cc(NCCNc3cc(-c4ccc(F)cc4)[nH]n3)n[nH]2)cc1 [Compound 1ak, bishydrochloride]: 57.4%
- Cc1ccc(-c2cc(NCCNc3cc(-c4ccc(Cl)cc4)[nH]n3)n[nH]2)cc1 [Compound 1ae, bishydrochloride]: 59.8%

Exercise: Would you mind telling me what remaining activity at 0.1 µM value was observed for Cc1ccc(-c2cc(NCCNc3cc(-c4cccs4)[nH]n3)n[nH]2)cc1 [Compound 1ab, bishydrochloride] ?
Solution: 54.2%

====

This section presents molecules with their documented melting point values.
Counter-ions that a name gives are not always drawn.
Output spec: scalar in °C, unitless text.

Exercise: Would you mind telling me what melting point value was observed for Cc1ccc(-c2cc(NC(=O)CNc3cc(-c4cccs4)[nH]n3)n[nH]2)cc1 [Compound 1z] ?
Solution: 227

Exercise: Would you mind telling me what melting point value was observed for Cc1ccc(-c2cc(NCC(=O)Nc3cc(-c4ccc(Cl)cc4)[nH]n3)n[nH]2)cc1 [Compound 1ac] ?
Solution: 257

Exercise: Would you mind telling me what melting point value was observed for Cc1ccc(-c2cc(NCCNc3cc(-c4ccc(Cl)cc4)[nH]n3)n[nH]2)cc1 (as salt: hydrochloride) [Compound 1ae, bishydrochloride] ?
Solution: 182
